system: primary rat mixed cortical cells; test: In vitro myelination assay (MBP positive myelin strands, fold myelin pixels above background); type: cell-based; settings: Rattus norvegicus, 1.0 μM compound, relative to baseline of no added compound; read-out: Fold myelin pixels above background
observable: fold induction at 1 µM

• Cc1cc(Nc2ncn(-c3cc(F)ccc3F)n2)cc(N2CCNCC2)c1 [Compound 558] = 10 to 100
• COC(=O)c1cc(Nc2ncn(-c3cc(F)cc(F)c3)n2)nc(N2CCOCC2)c1 [Compound 675] = 1 to 10
• Cc1cc(Nc2ncn(-c3cc(C)ccc3F)n2)cc(N2CCN(C3COC3)CC2)c1 [Compound 476] = 10 to 100
• Cc1cc(Nc2ncn(-c3cc(F)cc(F)c3)n2)cc(N2CCC(F)CC2)n1 [Compound 457] = 1000 to 10000
• Cc1cc(Nc2ncn(-c3cc(F)cc(F)c3)n2)cc(N2CC(N3CCCCC3)C2)c1 [Compound 634] = 10 to 100
• Fc1cc(F)cc(-n2cnc(Nc3cc(Cl)cc(NC4COC4)c3)n2)c1 [Compound 705] = 10 to 100
• Cc1cc(Nc2ncn(-c3cccc(C(F)(F)F)c3)n2)cc(OCC2(C)COC2)c1 [Compound 671] = 10 to 100
• Fc1ccc(-n2cnc(Nc3cc(C4CC4)nc(N4CC[C@H](F)C4)c3)n2)cc1F [Compound 492] = 1000 to 10000

---

test system: primary rat mixed cortical cells; test: In vitro myelination assay (MBP positive myelin strands, fold myelin pixels above background); format: cell-based; conditions: Rattus norvegicus, 10.0 μM compound; read-out: Fold myelin pixels above background relative to baseline of no added compound
observable: fold induction at 10 µM

* [2H]C1([2H])N(CCO)C([2H])([2H])C([2H])([2H])N(c2cc(C)cc(Nc3ncn(-c4cc(F)cc(F)c4)n3)c2)C1([2H])[2H] | ≤ 1
* Cc1cc(Nc2ncn(-c3cc(F)cc(F)c3)n2)cc(N2CCN(C3CCN(C)CC3)C(C)C2)c1 (stereo not shown) | ≤ 1
* Cc1cc(Nc2ncn(-c3ccccc3)n2)c(F)c(OC2CCOC2)c1 (single isomer, unassigned) [Compound 1002] | 10 to 100
* Cc1cc(Nc2ncn(-c3cc(F)cc(F)c3)n2)cc(N2CC(C)C(N3CCOCC3)C2)c1 (stereo not shown) | 1 to 10
* CCc1cc(Nc2ncn(-c3ccc(F)cc3)n2)cc(N2CCN(C3(C)COC3)CC2)c1 | ≤ 1
* Cc1cc(NCC(N2CCOCC2)C(F)(F)F)cc(Nc2ncn(-c3cc(F)cc(F)c3)n2)c1 (stereo not shown) | 1 to 10
* CC1(N2CCN(c3cc(C(F)F)cc(Nc4ncn(-c5ccc(F)c(F)c5)n4)n3)CC2)COC1 | 10 to 100

---

tested on: primary rat mixed cortical cells; test: In vitro myelination assay (MBP positive myelin strands, fold myelin pixels above background); format: cell-based; details: Rattus norvegicus, 10.0 μM compound, relative to baseline of no added compound; read-out: Fold myelin pixels above background, 10.0 μM
observable: fold induction at 10 µM

- Cc1cc(Nc2ncn(-c3ccccc3)n2)cc(O[C@H]2CCN(C3COC3)C2)c1: ≤ 1
- Cc1cc(Nc2ncn(-c3cc(F)cc(F)c3)n2)cc(NC2CCOC2)c1 (centres unmarked): 1 to 10
- Cc1cc(Nc2ncn(-c3cc(F)cc(F)c3)n2)cc(C2CNC(=O)O2)c1 (centres unmarked): 1 to 10
- Cc1cc(Nc2ncn(-c3ccccc3)n2)cc(C2CCCNC2)c1 (centres unmarked): ≤ 1
- Fc1cc(F)cc(-n2cnc(Nc3cc(C4CC4)nc(N4CC[C@@H](F)C4)c3)n2)c1: 1 to 10
- Cc1cc(Nc2ncn(-c3ccccc3)n2)cc(C2CCCN(C3CC3)C2)c1 (centres unmarked): ≤ 1
- Cc1cc(Nc2ncn(-c3ccccc3)n2)cc(N2CCC3(CC2)COC3)c1: 1000 to 10000
- FC(F)(F)c1cc(Nc2ncn(-c3ccccc3)n2)cc(N2CCOCC2)c1: 1000 to 10000
- CN1CCN(c2cc(Nc3ncn(-c4cc(F)cc(F)c4)n3)cc(C(F)(F)F)c2)CC1: 1 to 10
- Cc1cc(Nc2ncn(-c3cc(F)cc(F)c3)n2)cc(N2CCN(C3CCOCC3)CC2)c1: ≤ 1
- CCc1cc(Nc2ncn(-c3ccc(C(F)(F)F)cc3)n2)cc(N2CCN(C3COC3)CC2)c1: 1 to 10
- CCc1cc(Nc2ncn(-c3cnccn3)n2)cc(N2CC(N3CCOCC3)C2)c1: 1 to 10
- Cc1cc(Nc2ncn(-c3ccccc3)n2)cc(N2CCN(C)CC2)c1: ≤ 1
- Fc1cc(Nc2ncn(-c3cccc(C(F)(F)F)c3)n2)cc(N2CCCC2)c1: ≤ 1
- CCC1CCCN1c1cc(F)cc(-n2cnc(Nc3cc(C)cc(N4CCN(C5COC5)CC4)c3)n2)c1 (centres unmarked): ≤ 1
- Fc1cc(-n2cnc(Nc3cc(C4CC4)cc(N4CCN(C5COC5)CC4)c3)n2)ccn1: 1 to 10
- Cc1cc(Nc2ncn(-c3cc(F)cc(N4CC[C@@H](C(C)(C)O)C4)c3)n2)cc(N2CCN(C3COC3)CC2)c1: ≤ 1

---

test system: primary rat mixed cortical cells; assay: In vitro myelination assay (MBP positive myelin strands, fold myelin pixels above background); type: cell-based; conditions: Rattus norvegicus, 10.0 μM compound; read-out: Fold myelin pixels above background relative to baseline of no added compound
Let's look at some compounds and their measured fold induction at 10 µM.
observable: fold induction at 10 µM

- CC(=O)N1CC(Oc2cc(C)c(C)c(Nc3ncn(-c4cc(F)cc(F)c4)n3)c2)C1 [Compound 971]: 1 to 10
- CC(C)Oc1cc(Nc2ncn(-c3cc(F)cc(F)c3)n2)cc(N2CC(N3CCOCC3)C2)c1 [Compound 830]: 10 to 100
- Cc1cc(Nc2ncn(-c3cc(F)cc(F)c3)n2)c(F)c(NC2CCOCC2)c1 [Compound 810]: 1 to 10
- Cc1cc(Nc2ncn(-c3cc(F)cc(F)c3)n2)cc(NC2CCN(CC3CCOC3)CC2)c1 (centres unmarked) [Compound 1045]: ≤ 1
- Cc1cc(NCC2(N3CCCC3)COC2)cc(Nc2ncn(-c3cc(F)cc(F)c3)n2)c1 [Compound 1020]: 1 to 10
- Cc1cc(Nc2ncn(-c3cc(F)cc(F)c3)n2)cc(C(=O)N2CCN(C3COC3)CC2)c1 [Compound 864]: 10 to 100
- Cc1cc(Nc2ncn(-c3cccc(F)c3)n2)c(F)c(N2CCN(C3COC3)CC2)c1 [Compound 955]: 1 to 10
- Cc1cc(Nc2ncn(-c3cc(F)cc(F)c3)n2)cc(N2CCC(CCCO)CC2)c1 [Compound 877]: 1 to 10

---

Reported fold induction at 1 µM values are given for each entry in this list.
tested on: primary rat mixed cortical cells; test: In vitro myelination assay (MBP positive myelin strands, fold myelin pixels above background); format: cell-based; details: Rattus norvegicus, 1.0 μM compound, relative to baseline of no added compound; read-out: Fold myelin pixels above background
observable: fold induction at 1 µM

• Cc1cc(Nc2ncn(-c3cncc(F)c3)n2)cc(N2CCOCC2)c1 [Compound 427] = 100 to 1000
• Cc1cc(Nc2ncn(-c3cccc(C(F)(F)F)c3)n2)nc(N2CCN(C3COC3)CC2)c1 [Compound 578] = 1 to 10
• Cc1cc(Nc2ncn(-c3cnccn3)n2)cc([C@]2(C)CNC(=O)O2)c1 (single isomer, unassigned) [Compound 682] = 10 to 100
• Cc1cc(Nc2ncn(-c3cc(F)cc(F)c3)n2)cc(N2CC(N3CCOCC3)C2)c1 [Compound 485] = 10 to 100
• COc1cc(Nc2ncn(-c3cccc(C(F)(F)F)c3)n2)nc(N2CCN(C3COC3)CC2)c1 [Compound 610] = 1 to 10
• Cc1cc(Nc2ncn(-c3cncc(F)c3)n2)cc(N2CCN(C)CC2)c1 [Compound 387] = 10 to 100
• Cc1cc(Nc2ncn(-c3cc(F)cc(F)c3)n2)cc(N2C[C@H]3C[C@@H]2CO3)c1 [Compound 628] = 10 to 100
• Fc1ccc(-n2cnc(Nc3cc(C(F)(F)F)cc(N4CCOCC4)n3)n2)cc1F [Compound 770] = 10 to 100

---

Measured fold induction at 1 µM, listed per entry.
Test system: primary rat mixed cortical cells
Experiment: In vitro myelination assay (MBP positive myelin strands, fold myelin pixels above background)
Format: cell-based
Conditions: Rattus norvegicus, 1.0 μM compound, relative to baseline of no added compound; read-out: Fold myelin pixels above background
Excerpt: In Vitro Myelination Assay Compounds were screened for their ability to induce myelination using a primary rat mixed cortical cell culture assay, which contains neurons, oligodendrocyte precursor cells, oligodendrocytes, astrocytes and microglia. […] The myelin strands were quantitated using a custom created myelin detection software program. […]
observable: fold induction at 1 µM

* COC[C@H]1CCCN1c1cc(F)cc(-n2cnc(Nc3cc(C)cc(N4CCN(C5COC5)CC4)c3)n2)c1 [Compound 491] | 100 to 1000
* Cc1cc(Nc2ncn(-c3ccccn3)n2)nc(N2CC(N3CCOCC3)C2)c1 [Compound 503] | 1 to 10
* Fc1cc(F)cc(-n2cnc(Nc3cc(N4CCN(C5COC5)CC4)cc(N4CCN(C5COC5)CC4)c3)n2)c1 [Compound 574] | 100 to 1000
* Cc1cc(Nc2ncn(-c3cc(F)cc(F)c3)n2)nc(N2CC3(CCO3)C2)c1 [Compound 571] | ≤ 1
